Taken from patent US11931343B2.

Target: UniProt:P21589
Experiment: Inhibition of Ecto-5′-nucleotidase (CD73) activity in CHO-CD73 cells, phosphate release from AMP
Assay type: cell-based
Details: CHO-K1 cells stably transfected with human CD73; 25 μM AMP; 50 minutes, 37° C.; read-out: Potency: CD73 IC50
pIC50: −log10 of the molar value.
Measurement Type: pIC50

Req: Please list pIC50 recorded for the molecule O=C(O)c1cccc(-n2nnc3c(F)cc(-c4ccnn4Cc4ccc(Cl)cc4Cl)cc32)c1
Resp: < 6.00

Req: Report measured pIC50; entry is N#Cc1ccc(Cn2nccc2-c2cc(F)c3nnn(-c4ccc5[nH]c(=O)[nH]c5c4)c3c2)c(Cl)c1
Resp: > 7.00

Req: Please report the measured pIC50 for N#Cc1ccc(Cn2nccc2-c2cnc3c(F)nn(-c4ccc5[nH]c(=O)[nH]c5c4)c3c2)cc1
Resp: 6.00 to 7.00

Req: State its pIC50 for this molecule: Clc1ccc(Cn2nccc2-c2cnc3nnn(-c4ccc5cn[nH]c5c4)c3c2)c(Cl)c1
Resp: 6.00 to 7.00

* * *

Biological target: human CD73 (Homo sapiens, UniProt P21589)
Sequence (P21589 27-549): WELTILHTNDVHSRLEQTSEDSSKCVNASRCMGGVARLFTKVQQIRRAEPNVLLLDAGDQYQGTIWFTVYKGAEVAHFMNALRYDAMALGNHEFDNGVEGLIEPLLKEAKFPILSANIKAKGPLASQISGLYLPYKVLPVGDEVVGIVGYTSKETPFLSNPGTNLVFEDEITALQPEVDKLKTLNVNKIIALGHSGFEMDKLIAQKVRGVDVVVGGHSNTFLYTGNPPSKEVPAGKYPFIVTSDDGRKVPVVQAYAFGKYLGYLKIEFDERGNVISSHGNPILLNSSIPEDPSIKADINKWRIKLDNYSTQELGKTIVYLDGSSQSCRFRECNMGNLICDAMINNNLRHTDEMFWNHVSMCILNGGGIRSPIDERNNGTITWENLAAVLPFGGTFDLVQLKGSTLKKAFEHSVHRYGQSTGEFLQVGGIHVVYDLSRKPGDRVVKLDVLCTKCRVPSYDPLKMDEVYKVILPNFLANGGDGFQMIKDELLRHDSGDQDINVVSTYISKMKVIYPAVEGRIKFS
Experiment: Inhibition of Ecto-5′-nucleotidase (CD73) activity in CHO-CD73 cells, phosphate release from AMP
Details: CHO-K1 cells stably transfected with human CD73; 25 μM AMP; 50 minutes, 37° C.; read-out: Potency: CD73 IC50
Measurement Type: IC50

Req: Specify IC50 for N#Cc1ccc(Cn2nccc2-c2cc(F)c3nnn(-c4ccc5[nH][nH]c(=O)c5c4)c3c2)cc1 [Example 343] and stop.
Resp: 100 to 1000 nM

Req: Assign IC50 to the following record: CC(c1ccc(C(N)=O)cc1)n1nccc1-c1ccc2nnn(-c3ccc4cn[nH]c4c3)c2c1 (centres unmarked) [Example 118]
Resp: > 1000 nM

Req: Give the reported IC50 for this compound. Nc1cc(-n2nnc3c(Cl)cc(-c4ccnn4Cc4ccc(Cl)cc4Cl)cc32)ccn1 [Example 139]
Resp: 100 to 1000 nM

Req: Identify the reported IC50 for the following entry. O=c1[nH]c2ccc(-n3nnc4c(F)cc(-c5ccnn5Cc5nc6ccccc6[nH]5)cc43)cc2[nH]1 [Example 243]
Resp: 100 to 1000 nM

Req: Provide only the value of recorded IC50 for COc1ccc(Cn2nccc2-c2cc(F)c3nnn(-c4ccc5[nH]c(=O)[nH]c5c4)c3c2)c(F)c1 [Example 245]
Resp: 100 to 1000 nM

Req: Assign IC50 to the following record: O=c1[nH]c2ccc(-n3nnc4c(Cl)cc(-c5ccnn5Cc5cccc[n+]5[O-])cc43)cc2[nH]1 [Example 265]
Resp: > 1000 nM

Req: Specify IC50 for N#Cc1ccc(Cn2nccc2-c2cc(F)c3nnn(-c4ccc5[nH]c(=O)[nH]c5c4)c3c2)c(CNC2CCCC2)c1 [Example 286] and stop.
Resp: 100 to 1000 nM

Req: Supply IC50 value. Item: N#Cc1cccc(-n2nccc2-c2cc(F)c3nnn(-c4ccc5[nH]c(=O)[nH]c5c4)c3c2)c1 [Example 198]
Resp: > 1000 nM

Req: State its IC50 for this compound: O=c1[nH]c2ccc(-n3nnc4cnc(-c5ccnn5Cc5ccc(Cl)cc5F)cc43)cc2[nH]1 [Example 193]
Resp: 100 to 1000 nM

Req: Please indicate IC50 recorded for Cc1cc(F)ccc1Cn1nccc1-c1cc(Cl)c2nnn(-c3ccc4[nH]c(=O)[nH]c4c3)c2c1 [Example 208]
Resp: 100 to 1000 nM

Req: Tell me IC50 reported for Clc1cccc(-n2nccc2-c2cc3c(cc2Cl)nnn3-c2ccc3cn[nH]c3c2)c1 [Example 404]
Resp: 100 to 1000 nM

Req: Supply IC50 value. Item: Fc1c(-c2ccnn2Cc2ccccc2)ccc2nnn(-c3ccc4cn[nH]c4c3)c12 [Example 130]
Resp: > 1000 nM

Req: Find the measured IC50 of c1ccc(Cn2nccc2-c2cc3c(cn2)nnn3-c2ccc3cn[nH]c3c2)cc1 [Example 128] and report it.
Resp: 100 to 1000 nM

Req: Name the recorded IC50 of the item CC(c1ccc(Cl)cn1)n1nccc1-c1cc(F)c2nnn(-c3ccc4cn[nH]c4c3)c2c1 (centres unmarked) [Example 377] in your answer.
Resp: 100 to 1000 nM

Req: Specify IC50 for N#Cc1ccc(Cn2nccc2-c2cc3c(cn2)nnn3-c2ccc3cn[nH]c3c2)cc1 [Example 140] and stop.
Resp: 100 to 1000 nM

Req: For Cc1cc(-n2nccc2-c2cc(Cl)c3nnn(-c4ccc5[nH]c(=O)[nH]c5c4)c3c2)cc(C)n1 [Example 300] , write its IC50.
Resp: 100 to 1000 nM

Req: For the compound O=c1[nH]c2ccc(-n3nnc4c(F)cc(-c5ccnn5Cc5cccc6c5OC(F)(F)O6)cc43)cc2[nH]1 [Example 229] , give its reported IC50.
Resp: > 1000 nM

Req: Given the compound N#Cc1ccc(Cn2nccc2-c2cnc3c(N)nn(-c4ccc5cn[nH]c5c4)c3c2)nc1 [Example 281] , write its reported IC50.
Resp: 100 to 1000 nM

Req: Please look at this compound and report its IC50: Cn1nc(-c2ccc3cn[nH]c3c2)c2cc(-c3ccnn3Cc3ccc(C#N)cc3)c[n+]([O-])c21 [Example 361]
Resp: > 1000 nM

Req: Give IC50 for the following compound: N#Cc1ccc(Cn2nccc2-c2cc3c(cc2Cl)nnn3-c2ccc3cn[nH]c3c2)cc1 [Example 150]
Resp: < 100 nM

Req: Specify measured IC50 for Cc1ncc(Cn2nccc2-c2cc(Cl)c3nnn(-c4ccc5[nH]c(=O)[nH]c5c4)c3c2)o1 [Example 244] .
Resp: > 1000 nM

Req: Supply measured IC50 of O=c1[nH]c2ccc(-n3nnc4c(Cl)cc(-c5ccnn5Cc5ccncc5F)cc43)cc2[nH]1 [Example 238] in your reply.
Resp: 100 to 1000 nM

Req: Annotate the compound N#Cc1ccc(Cn2nccc2-c2cc(F)c3nnn(-c4ccc5c(N)n[nH]c5c4)c3c2)cc1 [Example 345] with its measured IC50.
Resp: 100 to 1000 nM

Req: State its IC50: N#Cc1ccc(Cn2nccc2-c2cc(F)c3nnn(-c4ccc5c(CC(=O)O)n[nH]c5c4)c3c2)cc1 [Example 348]
Resp: > 1000 nM

Req: Return IC50 (reported value) for this compound: O=c1[nH]c2ccc(-n3nnc4c(F)cc(-c5ccnn5Cc5ccc(Cl)c(F)c5)cc43)cc2[nH]1 [Example 192]
Resp: 100 to 1000 nM

Req: Name the recorded IC50 of the item N#Cc1ccc(Cn2nccc2-c2cc3c(cnn3-c3ccc4cn[nH]c4c3)c(=O)[nH]2)c(F)c1 [Example 338] in your answer.
Resp: 100 to 1000 nM

Req: Determine its reported IC50: Cc1cc2nnn(-c3ccc4cn[nH]c4c3)c2cc1-c1ccnn1Cc1ccc(C#N)cc1 [Example 384]
Resp: 100 to 1000 nM

Req: Dear colleague, please send me the reported IC50 for N#Cc1ccc(Cn2nccc2-c2ccc3cnc(-c4ccc5[nH]c(=O)[nH]c5c4)n3c2)c(F)c1 [Example 335] when you can.
Resp: > 1000 nM

Req: Look up and report measured IC50 for this entry: CC(c1ccc(Cl)cn1)n1nccc1-c1cc2c(cc1F)nnn2-c1ccc2cn[nH]c2c1 (centres unmarked) [Example 383]
Resp: 100 to 1000 nM
